target_desc: mMC1R (Mus musculus)
Sequence (Q01727 whole entry): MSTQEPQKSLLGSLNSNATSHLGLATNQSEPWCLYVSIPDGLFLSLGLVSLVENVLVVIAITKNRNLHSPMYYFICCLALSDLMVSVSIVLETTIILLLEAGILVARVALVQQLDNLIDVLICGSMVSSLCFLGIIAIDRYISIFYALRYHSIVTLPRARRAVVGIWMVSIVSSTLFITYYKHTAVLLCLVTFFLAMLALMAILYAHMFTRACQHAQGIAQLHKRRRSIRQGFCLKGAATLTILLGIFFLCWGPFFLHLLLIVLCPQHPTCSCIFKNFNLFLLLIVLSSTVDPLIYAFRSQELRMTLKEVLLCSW
test_method_notes: AlphaScreen cAMP assay, agonist activity
condition_details: up to 100 μM concentrations
reported_endpoint: agonist activity at the MC1R (in words)

I am curious: what agonist activity at the MC1R (in words) value has been reported for C[C@@H]1NC(=O)[C@H](Cc2c[nH]cn2)NC(=O)[C@H](Cc2ccccc2)NC(=O)[C@H](Cc2ccccc2)NC(=O)[C@H](CCCNC(=N)N)NC(=O)[C@@H]2CCCN2C(=O)[C@H]2CCCN2C(=O)[C@H](Cc2ccccc2)NC1=O [Peptide 10, c[Pro-Arg-Phe-Phe-His-Ala-Phe-DPro]] ?
no agonist activity

I am curious: what agonist activity at the MC1R (in words) value has been reported for C[C@@H]1NC(=O)[C@H](CC(=O)O)NC(=O)[C@H](Cc2ccccc2)NC(=O)[C@H](Cc2ccccc2)NC(=O)[C@H](CCCNC(=N)N)NC(=O)[C@@H]2CCCN2C(=O)[C@H]2CCCN2C(=O)[C@H](Cc2ccccc2)NC1=O [Peptide 7, c[Pro-Arg-Phe-Phe-Asp-Ala-Phe-DPro]] ?
no agonist activity

I am curious: what agonist activity at the MC1R (in words) value has been reported for C[C@@H]1NC(=O)[C@@H](CN)NC(=O)[C@H](Cc2ccccc2)NC(=O)[C@H](Cc2ccccc2)NC(=O)[C@H](CCCNC(=N)N)NC(=O)[C@@H]2CCCN2C(=O)[C@H]2CCCN2C(=O)[C@H](Cc2ccccc2)NC1=O [Peptide 9, c[Pro-Arg-Phe-Phe-DDap-Ala-Phe-DPro]] ?
no agonist activity
